Numbers sourced from paper PMC4227788.

Target: T1, Tim-Tipin complex (mouse, UniProt Q9R1X4;Q91WA1 1-1134;1-278)
T1 sequence 1: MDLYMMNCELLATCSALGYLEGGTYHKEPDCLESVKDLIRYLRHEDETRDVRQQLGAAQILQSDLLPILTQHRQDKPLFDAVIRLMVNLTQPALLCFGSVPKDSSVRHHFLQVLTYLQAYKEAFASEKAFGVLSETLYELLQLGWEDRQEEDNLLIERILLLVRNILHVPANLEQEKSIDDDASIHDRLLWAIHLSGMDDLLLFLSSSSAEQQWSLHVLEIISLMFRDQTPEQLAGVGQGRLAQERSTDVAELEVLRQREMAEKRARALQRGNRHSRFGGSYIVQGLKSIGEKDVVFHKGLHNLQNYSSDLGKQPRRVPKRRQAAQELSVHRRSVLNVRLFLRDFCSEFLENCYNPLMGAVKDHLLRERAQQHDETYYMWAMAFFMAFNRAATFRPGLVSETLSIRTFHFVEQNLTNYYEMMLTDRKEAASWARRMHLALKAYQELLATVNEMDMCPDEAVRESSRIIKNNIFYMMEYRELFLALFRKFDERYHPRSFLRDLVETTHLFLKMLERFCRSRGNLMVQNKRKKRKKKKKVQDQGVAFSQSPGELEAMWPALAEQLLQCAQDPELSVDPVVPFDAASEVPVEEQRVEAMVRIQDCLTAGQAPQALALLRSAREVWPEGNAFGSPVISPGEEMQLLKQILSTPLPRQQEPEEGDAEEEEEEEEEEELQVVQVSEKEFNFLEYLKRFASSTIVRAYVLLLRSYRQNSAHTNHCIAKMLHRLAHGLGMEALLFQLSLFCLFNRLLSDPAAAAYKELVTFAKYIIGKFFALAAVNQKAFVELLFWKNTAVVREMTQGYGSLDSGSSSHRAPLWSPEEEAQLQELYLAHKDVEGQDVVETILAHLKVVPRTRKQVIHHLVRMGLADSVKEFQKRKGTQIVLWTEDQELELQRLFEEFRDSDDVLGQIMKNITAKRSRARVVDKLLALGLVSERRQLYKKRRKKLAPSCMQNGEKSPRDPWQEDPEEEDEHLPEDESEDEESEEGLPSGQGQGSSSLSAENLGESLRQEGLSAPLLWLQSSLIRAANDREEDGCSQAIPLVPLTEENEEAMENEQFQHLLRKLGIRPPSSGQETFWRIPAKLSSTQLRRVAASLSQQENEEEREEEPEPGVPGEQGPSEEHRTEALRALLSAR
T1 sequence 2: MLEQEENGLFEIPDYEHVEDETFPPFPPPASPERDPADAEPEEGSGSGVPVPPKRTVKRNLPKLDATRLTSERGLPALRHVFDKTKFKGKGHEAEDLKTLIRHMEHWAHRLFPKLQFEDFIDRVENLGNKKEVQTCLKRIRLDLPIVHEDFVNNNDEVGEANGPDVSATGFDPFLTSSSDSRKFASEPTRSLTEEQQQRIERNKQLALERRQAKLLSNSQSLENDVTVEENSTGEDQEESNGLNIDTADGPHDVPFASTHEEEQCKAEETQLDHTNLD
Experiment: fluorescence anisotropy; Hill n = 2.2 ± 0.1; 30 C; 20 mM Hepes pH 7.5, 125 mM NaCl, 2 mM DTT, 0.01 mM zinc acetate (Buffer A); EMSA 15 min RT + 15 min 4 C; FA 15 min 30 C, 10 nM DNA
Conditions: protein: recombinant; tags: His (Tim) and His-GST (Tipin), cleaved with 3C; copies: 1;1; label: 5'-FAM
quantity_measured: pKd
Note on pKd: it is the negative log10 of concentration, concentration in mol/L.

Exercise: Which value of pKd has been reported for 60 nt FAM ssDNA (ssDNA) DNA: ACGCTGCCGAATTCTACCAGTGCCTTGCTAGGACATCTTTGCCCACCTGCAGGTTCACCC in the records?
Key: 6.54
